Ref: ChEMBL document CHEMBL1143799

# System: T47D
# experimentSummary: Growth inhibition of human T47D cells after 48 hrs by SRB protein assay
# Assay type: functional
reportedProperty: GI50 (µM)

1: O=C(Cc1csc2nc(-c3ccc(Br)cc3)cn12)N/N=C/c1ccccc1O
2: COc1cccc(OC)c1/C=N/NC(=O)Cc1csc2nc(-c3ccc(Br)cc3)cn12
Q: // returns 1 or 2 , whichever has the lower GI50 // caller expects the label of the chosen entry
Result: 1
(1: 5.25 µM, 2: 40.7 µM)

###

# Test system: COLO 205
# experimentSummary: Growth inhibition of human COLO205 cells after 48 hrs by SRB protein assay
# Assay type: functional
# measurementSetup: COLO 205, 48 h, read-out: Log TGI (converted)
reportedProperty: TGI

* Nc1nc2[nH]cnc2c(=S)[nH]1 | 8.91 µM
* O=C(Cc1csc2nc(-c3ccc(Br)cc3)cn12)N/N=C/c1ccccc1O | 22.9 µM
* O=C(Cc1csc2nc(-c3ccc(Br)cc3)cn12)N/N=C/c1ccc(Cl)cc1Cl | > 100 µM
* O=C(Cc1csc2nc(-c3ccc(Br)cc3)cn12)N/N=C/c1ccc(O)cc1 | > 100 µM
* O=C(Cc1csc2nc(-c3ccc(Br)cc3)cn12)N/N=C/c1ccccc1 | > 100 µM

// next entry
Q: Consider the compound COc1cccc(OC)c1/C=N/NC(=O)Cc1csc2nc(-c3ccc(Br)cc3)cn12 and give its measured TGI.
Result: > 100 µM
